# ASSAYED SYSTEM: 5HT2C receptors (Homo sapiens)
# Sequence (P28335 33-458): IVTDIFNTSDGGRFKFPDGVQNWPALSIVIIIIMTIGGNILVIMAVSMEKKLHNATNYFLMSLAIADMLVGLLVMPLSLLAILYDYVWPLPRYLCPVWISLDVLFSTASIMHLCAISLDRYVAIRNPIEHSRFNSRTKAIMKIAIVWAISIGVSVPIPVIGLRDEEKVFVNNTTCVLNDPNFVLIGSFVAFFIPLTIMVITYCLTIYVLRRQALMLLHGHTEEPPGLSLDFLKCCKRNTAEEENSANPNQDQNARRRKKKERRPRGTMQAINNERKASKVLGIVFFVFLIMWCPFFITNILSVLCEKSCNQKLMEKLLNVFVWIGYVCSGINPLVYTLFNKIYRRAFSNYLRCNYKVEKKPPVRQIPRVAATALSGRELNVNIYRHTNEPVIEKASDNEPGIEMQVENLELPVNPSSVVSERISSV
# PROTOCOL TEXT: Human 5-HT2C functional assay in CHO-K1 cells (calcium flux, FLIPR)
# Type: cell-based
# Parameters: expressed in transfected cells; host or cells: CHO-K1 cells
# CONDITIONS: CHO-K1 cells; percentage relative to the effect of serotonin; read-out: Emax (%), 5-HT2c Agonist Activity
OBSERVATION TYPE: Emax

In the examples that follow, each entry is paired with its recorded Emax.
>>> endpoint_result("O=C1CC2CNCCN2c2cc(-c3csc4ccccc34)ccc2N1 (stereo not drawn)")
"100%"
>>> endpoint_result("O=C1CC2CNCCN2c2cc(Cc3ccccc3)ccc2N1 (stereo not drawn)")
"> 120%"
>>> endpoint_result("C[C@H](Oc1ccc2c(c1)N1CCNCC1CC(=O)N2)c1ccccc1 (stereo partly drawn)")
"> 120%"
>>> endpoint_result("O=C1CC2CNCCN2c2cc(C3CC3)ccc2N1 (stereo not drawn)")
"> 80%"
>>> endpoint_result("Fc1ccccc1-c1ccc2c(c1)N1CCNC[C@@H]1CCO2")
"> 120%"
>>> endpoint_result("O=C1CC2CNCCN2c2cc(OCCc3ccccc3)ccc2N1 (stereo not drawn)")
"> 120%"
>>> endpoint_result("O=C1CC2CNCCN2c2cc(-c3ccsc3)ccc2N1 (stereo not drawn)")
"> 120%"
>>> endpoint_result("O=C1CC2CNCCN2c2cc(-c3cccc4[nH]ccc34)ccc2N1 (stereo not drawn)")
"> 120%"

Lookup: State its Emax on 5HT2C receptors (Homo sapiens): `Fc1ccc(-c2ccc3c(c2)N2CCNC[C@@H]2CCO3)cc1`
Found: > 120%

Lookup: State its Emax on 5HT2C receptors (Homo sapiens): O=C1CC2CNCCN2c2cc(OCc3ccccc3C(F)(F)F)ccc2N1 (stereo not drawn)
Found: > 120%

Lookup: State its Emax on 5HT2C receptors (Homo sapiens): COc1ccccc1-c1ccc2c(c1)N1CCNCC1CC(=O)N2 (stereo not drawn)
Found: 110%

Lookup: State its Emax on 5HT2C receptors (Homo sapiens): O=C1CC2CNCCN2c2cc(-c3cnc4ccccc4c3)ccc2N1 (stereo not drawn)
Found: > 120%

Lookup: State its Emax on 5HT2C receptors (Homo sapiens): O=C1CC2CNCCN2c2cc(-c3ccc(F)cc3)ccc2N1 (stereo not drawn)
Found: 100%

Lookup: State its Emax on 5HT2C receptors (Homo sapiens): `CC(C)=Cc1ccc2c(c1)N1CCNC[C@@H]1CCO2`
Found: > 120%

Lookup: State its Emax on 5HT2C receptors (Homo sapiens): `CS(=O)(=O)c1cccc(-c2ccc3c(c2)N2CCNC[C@@H]2CCO3)c1`
Found: > 120%
